Target: Full length human CDC7 protein co-expressed with DBF4 (Homo sapiens)
Construct: Full length human CDC7 protein co-expressed with DBF4; purchased SignalChem (China)
Test: CDC7 kinase biochemical assay (ADP-Glo, PDKtide substrate)
Conditions: 0.1 nM CDC7/DBF4, 1 uM ATP, 10 uM PDKtide, 4 h; read-out: CDC7 ADP-Glo PDKtide IC50
Reported values of IC50 for individual entries

INSERT INTO results (compound, assay_system, readout_type, endpoint_value) VALUES
  ('COC[C@@H]1CNC(=O)c2sc(-c3cn[nH]c3)c3c2N1CC(F)(F)O3', 'Full length human CDC7 protein co-expressed with DBF4 (Homo sapiens)', 'IC50', '< 1 nM');

Q) What measured IC50 is associated with O=C1N[C@@H](C2CCCCO2)CN2CC(F)(F)Cc3c(-c4cn[nH]c4)sc1c32 (single isomer, unassigned) on Full length human CDC7 protein co-expressed with DBF4 (Homo sapiens)?
A) < 1 nM

Q) Record: CC(C)(O)C[C@H]1CN2CC(F)(F)Cc3c(-c4cn[nH]c4)sc(c32)C(=O)N1
A) < 1 nM

Q) Record: C[C@@H]1CN2CC(F)(F)Oc3c(-c4cn[nH]c4)sc(c32)C(=O)N1
A) < 1 nM

Q) Record: O=C1NCCN2c3c1sc(-c1cn[nH]c1)c3OC[C@@H]2CO
A) < 1 nM

Q) Record: Cc1ccn(C[C@@H]2CNC(=O)c3sc(-c4cn[nH]c4)c4c3N2CCO4)n1
A) < 1 nM

Q) Record: Cc1n[nH]cc1-c1sc2c3c1CC(F)(F)CN3C[C@H]([C@H]1CCCO1)NC2=O (single isomer, unassigned)
A) < 1 nM

Q) Record: Cc1cnn(C[C@H]2CNC(=O)c3sc(-c4cn[nH]c4)c4c3N2CCC4)c1
A) 1 to 10 nM

Q) Record: O=C1NC(C2CCCCO2)CN2CCCc3c(-c4cn[nH]c4)sc1c32 (single isomer, unassigned) [Compound 109]
A) > 10 nM

Q) Record: O=C1N[C@H](C2CCCCO2)CN2CC(F)(F)Cc3c(-c4cn[nH]c4)sc1c32 (single isomer, unassigned) [Compound 138]
A) 1 to 10 nM

Q) Record: COC[C@@H]1CN(C)C(=O)c2sc(-c3cn[nH]c3)c3c2N1CCO3
A) 1 to 10 nM

Q) Record: O=C1NC(C2CC(F)(F)C2)CN2CC(F)Cc3c(-c4cn[nH]c4)sc1c32 (single isomer, unassigned) [Compound 127]
A) < 1 nM

---

Biological target: Full length human CDC7 protein co-expressed with DBF4 (Homo sapiens, UniProt O00311)
Construct: Full length human CDC7 protein co-expressed with DBF4; purchased SignalChem (China)
Sequence (O00311 whole entry): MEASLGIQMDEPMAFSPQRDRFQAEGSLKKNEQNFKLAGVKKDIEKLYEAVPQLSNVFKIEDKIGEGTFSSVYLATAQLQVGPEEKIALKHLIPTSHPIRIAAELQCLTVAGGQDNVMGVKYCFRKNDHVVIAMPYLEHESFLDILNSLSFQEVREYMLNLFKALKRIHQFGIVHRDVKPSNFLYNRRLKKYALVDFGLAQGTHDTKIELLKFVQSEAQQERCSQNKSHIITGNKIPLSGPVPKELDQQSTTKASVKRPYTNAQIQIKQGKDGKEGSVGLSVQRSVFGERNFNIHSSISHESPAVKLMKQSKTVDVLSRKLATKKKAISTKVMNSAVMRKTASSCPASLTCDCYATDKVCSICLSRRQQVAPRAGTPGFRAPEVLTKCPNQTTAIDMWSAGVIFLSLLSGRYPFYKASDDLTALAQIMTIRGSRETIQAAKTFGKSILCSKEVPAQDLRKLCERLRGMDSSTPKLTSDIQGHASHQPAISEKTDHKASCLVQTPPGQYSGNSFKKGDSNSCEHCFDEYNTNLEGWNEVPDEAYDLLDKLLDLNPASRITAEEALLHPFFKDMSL
Sequence (Q9UBU7 whole entry partner): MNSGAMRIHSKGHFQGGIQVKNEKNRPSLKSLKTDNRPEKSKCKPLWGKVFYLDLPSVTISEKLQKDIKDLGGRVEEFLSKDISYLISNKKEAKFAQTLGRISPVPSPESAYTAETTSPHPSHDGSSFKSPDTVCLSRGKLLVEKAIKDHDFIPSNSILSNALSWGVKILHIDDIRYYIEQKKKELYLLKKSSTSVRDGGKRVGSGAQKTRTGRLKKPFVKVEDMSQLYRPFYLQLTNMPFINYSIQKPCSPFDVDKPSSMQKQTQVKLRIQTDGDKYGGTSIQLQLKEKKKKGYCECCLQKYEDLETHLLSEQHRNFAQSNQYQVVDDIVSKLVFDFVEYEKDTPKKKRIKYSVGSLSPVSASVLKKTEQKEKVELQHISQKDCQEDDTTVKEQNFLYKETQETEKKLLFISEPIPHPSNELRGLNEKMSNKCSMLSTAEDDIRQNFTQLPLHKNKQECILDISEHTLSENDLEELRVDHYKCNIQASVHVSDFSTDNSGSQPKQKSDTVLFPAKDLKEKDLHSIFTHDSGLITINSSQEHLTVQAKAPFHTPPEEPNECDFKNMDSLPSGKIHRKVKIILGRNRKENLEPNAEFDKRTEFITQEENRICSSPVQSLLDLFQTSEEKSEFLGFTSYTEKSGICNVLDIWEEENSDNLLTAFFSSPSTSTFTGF
Assay: CDC7 kinase biochemical assay (ADP-Glo, PDKtide substrate)
Conditions: 0.1 nM CDC7/DBF4, 1 uM ATP, 10 uM PDKtide, 4 h; read-out: CDC7 ADP-Glo PDKtide IC50
pIC50: −log10 of the molar value.
READOUT TYPE: pIC50

Reference set (3 entries):
INSERT INTO results (compound, readout_type, endpoint_value) VALUES
  ('Cc1ccnn1C[C@H]1CNC(=O)c2sc(-c3cn[nH]c3)c3c2N1CCO3 [Compound 62]', 'pIC50', '< 8.00'),
  ('COC[C@@H]1CNC(=O)c2sc(-c3ccncc3)c3c2N1CCO3 [Compound 105]', 'pIC50', '> 9.00'),
  ('O=C1N[C@H](C2CCC2)CN2CC(F)(F)Oc3c(-c4cn[nH]c4)sc1c32 [Compound 100]', 'pIC50', '> 9.00');

Please examine the following record next.
Q) pIC50 lookup needed for Cc1[nH]ncc1-c1sc2c3c1OCCN3C(C)(C)NC2=O [Compound 6] , thanks.
A) 8.00 to 9.00
